# assayText: in vivo
# conditionParameters: female, athymic BALB/c nude, mouse, iv, total radioactivity
measurementLabel: tissue uptake at 168 h (%ID/g)
Provide the reading as a plain figure in %ID/g.

## Input Name the recorded tissue uptake at 168 h of the item CCCC[C@@H](C(=O)N[C@@H](CC(=O)O)C(=O)N[C@@H](Cc1cccc2ccccc12)C(N)=O)N(C)C(=O)[C@H](Cc1c[nH]c2ccccc12)NC(=O)CCNC(=O)CC(O)CNC(=O)CC(O)CNC(=O)CN1CCN(CC(=O)O)CCN(CC(=O)O)CCN(CC(=O)O)CC1 (single isomer, unassigned) [^177Lu-DOTA-MGSA, metal not drawn] in your answer.
## Output 1.2

---

# assayText: in vivo
# conditionParameters: female, athymic BALB/c nude, mouse, iv, total radioactivity
measurementLabel: tissue uptake at 1 h (%ID/g)
Provide the reading as a plain figure in %ID/g.

## Input Name the recorded tissue uptake at 1 h of the item CCCC[C@@H](C(=O)N[C@@H](CC(=O)O)C(=O)N[C@@H](Cc1cccc2ccccc12)C(N)=O)N(C)C(=O)[C@H](Cc1c[nH]c2ccccc12)NC(=O)CCNC(=O)CC(O)CNC(=O)CC(O)CNC(=O)CN1CCN(CC(=O)O)CCN(CC(=O)O)CCN(CC(=O)O)CC1 (single isomer, unassigned) [^177Lu-DOTA-MGSA, metal not drawn] in your answer.
## Output 56.3

---

# assayText: in vivo
# conditionParameters: female, athymic BALB/c nude, mouse, iv, total radioactivity, tumour uptake in A431-CCK2R xenografts
measurementLabel: tissue uptake at 4 h (%ID/g)
Provide the reading as a plain figure in %ID/g.

## Input Name the recorded tissue uptake at 4 h of the item CCCC[C@@H](C(=O)N[C@@H](CC(=O)O)C(=O)N[C@@H](Cc1cccc2ccccc12)C(N)=O)N(C)C(=O)[C@H](Cc1c[nH]c2ccccc12)NC(=O)CCNC(=O)CC(O)CNC(=O)CC(O)CNC(=O)CN1CCN(CC(=O)O)CCN(CC(=O)O)CCN(CC(=O)O)CC1 (single isomer, unassigned) [^177Lu-DOTA-MGSA, metal not drawn] in your answer.
## Output 32.1

---

# assayText: Biodistribution of ^177Lu-labelled peptidomimetics at 4 h p.i. in xenografted nude mice
# conditionParameters: female, athymic BALB/c nude, mouse, kidney, iv, total radioactivity, kidney uptake, ^177Lu-labelled, 4 h p.i.
measurementLabel: tissue uptake at 4 h (%ID/g)
Provide the reading as a plain figure in %ID/g.

## Input Name the recorded tissue uptake at 4 h of the item CCCC[C@@H](C(=O)N[C@@H](CC(=O)O)C(=O)N[C@@H](Cc1cccc2ccccc12)C(N)=O)N(C)C(=O)[C@H](Cc1c[nH]c2ccccc12)NC(=O)CNC(=O)[C@H](Cc1ccc(O)cc1)NC(=O)[C@H](C)NC(=O)[C@@H](CCC(=O)O)NC(=O)CN1CCN(CC(=O)O)CCN(CC(=O)O)CCN(CC(=O)O)CC1 [^177Lu-DOTA-MGS5, metal not drawn] in your answer.
## Output 3.5

---

Entries and their tissue uptake at 1 h
# assayText: in vivo
# conditionParameters: female, athymic BALB/c nude, mouse, iv, total radioactivity, kidney uptake
Starred links: 1 amine or outer side, 2 acyl side, 3 side chain; linkers in the order of their positions; H or OH if unused. Non-standard residues stand in square brackets, D forms with d. Residues, ends and D or L forms follow the SMILES beside them. *: point of attachment. DOTA = O=C(O)CN1CCN(CC(=O)O)CCN(CC(=O)*)CCN(CC(=O)O)CC1; d(γGlu) = O=C(O)[C@@H](CCC(=O)[*:2])N[*:1]; 1Nal = N[C@@H](Cc1cccc2ccccc12)C(=O)O; NMeNle = CCCC[C@H](NC)C(=O)O; βAla = NCCC(=O)O
Provide the reading as a plain figure in %ID/g.

## Input Name the recorded tissue uptake at 1 h of the item CCCC[C@@H](C(=O)N[C@@H](CC(=O)O)C(=O)N[C@@H](Cc1cccc2ccccc12)C(N)=O)N(C)C(=O)[C@H](Cc1c[nH]c2ccccc12)NC(=O)CCNC(=O)CC(O)CNC(=O)CC(O)CNC(=O)CN1CCN(CC(=O)O)CCN(CC(=O)O)CCN(CC(=O)O)CC1 (single isomer, unassigned) [^68Ga-DOTA-MGSA, metal not drawn] in your answer.
## Output 2.4

Turning now to a further record.
## Input Name the recorded tissue uptake at 1 h of the item CCCC[C@@H](C(=O)N[C@@H](CC(=O)O)C(=O)N[C@@H](Cc1cccc2ccccc12)C(N)=O)N(C)C(=O)[C@H](Cc1c[nH]c2ccccc12)NC(=O)CCNC(=O)CC[C@@H](NC(=O)CC[C@@H](NC(=O)CN1CCN(CC(=O)O)CCN(CC(=O)O)CCN(CC(=O)O)CC1)C(=O)O)C(=O)O [^68Ga-DOTA-MGSC, metal not drawn] ({DOTA-d(γGlu)-d(γGlu)-βAla}-W[NMeNle]D[1Nal]-NH2) in your answer.
## Output 2.5
